I'd appreciate it if you could supply % activity values for the items below.
# test_system: BRK(h) (Homo sapiens)
# protocol_notes: Kinase Profiling Assay
# Type: biochemical
# assay_setup: peptide 100 μM
No end group written: not given here.
Supply the numeric figure in %, leaving out any unit text.

The sequence listed as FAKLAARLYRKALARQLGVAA [MMI-0300] shows % activity equal to 35

Looking up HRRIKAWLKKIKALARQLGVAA (Mammal) [MMI-0500] , I see its % activity listed as 41

So, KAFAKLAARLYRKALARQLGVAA [MMI-0400] ? Its % activity was 18

Reported % activity for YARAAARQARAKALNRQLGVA (Mammal) [MMI-0200] was 127

Summary for this sequence, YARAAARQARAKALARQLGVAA [MMI-0100] : % activity is 70

---

# test_system: AMPKα2(h) (Homo sapiens, UniProt P54646)
# Sequence (P54646 whole entry): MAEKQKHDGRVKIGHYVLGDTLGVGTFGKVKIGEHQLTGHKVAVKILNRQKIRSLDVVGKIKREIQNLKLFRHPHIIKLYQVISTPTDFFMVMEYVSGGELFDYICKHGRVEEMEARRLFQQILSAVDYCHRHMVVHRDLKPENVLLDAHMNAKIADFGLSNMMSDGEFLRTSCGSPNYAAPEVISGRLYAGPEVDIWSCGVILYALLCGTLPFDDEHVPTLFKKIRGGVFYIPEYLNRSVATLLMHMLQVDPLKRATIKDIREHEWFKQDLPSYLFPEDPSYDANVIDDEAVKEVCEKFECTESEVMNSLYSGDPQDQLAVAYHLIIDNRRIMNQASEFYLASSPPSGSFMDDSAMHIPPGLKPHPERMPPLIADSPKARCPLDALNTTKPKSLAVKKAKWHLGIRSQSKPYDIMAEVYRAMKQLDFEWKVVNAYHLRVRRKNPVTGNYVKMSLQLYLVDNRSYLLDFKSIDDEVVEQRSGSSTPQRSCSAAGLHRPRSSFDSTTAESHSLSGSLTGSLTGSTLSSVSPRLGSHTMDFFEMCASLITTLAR
# Sequence (Q9Y478 whole entry partner): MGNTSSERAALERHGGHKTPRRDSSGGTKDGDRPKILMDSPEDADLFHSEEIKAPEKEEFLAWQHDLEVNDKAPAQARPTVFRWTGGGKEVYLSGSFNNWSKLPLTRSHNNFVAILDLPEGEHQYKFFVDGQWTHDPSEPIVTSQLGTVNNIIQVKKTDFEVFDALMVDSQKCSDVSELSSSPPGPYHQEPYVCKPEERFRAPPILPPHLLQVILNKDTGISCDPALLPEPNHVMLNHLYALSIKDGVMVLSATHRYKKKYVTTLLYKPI
# Sequence (P54619 whole entry partner): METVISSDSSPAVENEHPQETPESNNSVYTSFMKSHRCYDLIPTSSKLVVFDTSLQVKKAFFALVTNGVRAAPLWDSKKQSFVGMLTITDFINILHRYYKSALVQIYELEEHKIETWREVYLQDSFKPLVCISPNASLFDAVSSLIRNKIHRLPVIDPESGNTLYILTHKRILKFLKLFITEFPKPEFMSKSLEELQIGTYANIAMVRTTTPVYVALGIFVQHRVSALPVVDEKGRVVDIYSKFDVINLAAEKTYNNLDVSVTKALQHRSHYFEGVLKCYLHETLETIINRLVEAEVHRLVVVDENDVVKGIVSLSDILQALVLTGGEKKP
# protocol_notes: Kinase Profiling Assay
# Format: biochemical
# assay_setup: peptide 100 μM
endpoint: % activity
Report field: quantity (unit follows the number).

The recorded % activity for entry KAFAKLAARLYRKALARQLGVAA [MMI-0400] equals 58%

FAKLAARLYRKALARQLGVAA [MMI-0300] yielded % activity of 54%

response.value for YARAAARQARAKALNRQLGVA (Mammal) [MMI-0200] (field: % activity) = 88%

get_value(item= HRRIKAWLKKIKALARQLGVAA (Mammal) [MMI-0500] , readout=% activity) returns 9%

---

# test_system: IRR(h) (Homo sapiens, UniProt P14616)
# Construct: purchased Millipore
# Sequence (P14616 27-1297): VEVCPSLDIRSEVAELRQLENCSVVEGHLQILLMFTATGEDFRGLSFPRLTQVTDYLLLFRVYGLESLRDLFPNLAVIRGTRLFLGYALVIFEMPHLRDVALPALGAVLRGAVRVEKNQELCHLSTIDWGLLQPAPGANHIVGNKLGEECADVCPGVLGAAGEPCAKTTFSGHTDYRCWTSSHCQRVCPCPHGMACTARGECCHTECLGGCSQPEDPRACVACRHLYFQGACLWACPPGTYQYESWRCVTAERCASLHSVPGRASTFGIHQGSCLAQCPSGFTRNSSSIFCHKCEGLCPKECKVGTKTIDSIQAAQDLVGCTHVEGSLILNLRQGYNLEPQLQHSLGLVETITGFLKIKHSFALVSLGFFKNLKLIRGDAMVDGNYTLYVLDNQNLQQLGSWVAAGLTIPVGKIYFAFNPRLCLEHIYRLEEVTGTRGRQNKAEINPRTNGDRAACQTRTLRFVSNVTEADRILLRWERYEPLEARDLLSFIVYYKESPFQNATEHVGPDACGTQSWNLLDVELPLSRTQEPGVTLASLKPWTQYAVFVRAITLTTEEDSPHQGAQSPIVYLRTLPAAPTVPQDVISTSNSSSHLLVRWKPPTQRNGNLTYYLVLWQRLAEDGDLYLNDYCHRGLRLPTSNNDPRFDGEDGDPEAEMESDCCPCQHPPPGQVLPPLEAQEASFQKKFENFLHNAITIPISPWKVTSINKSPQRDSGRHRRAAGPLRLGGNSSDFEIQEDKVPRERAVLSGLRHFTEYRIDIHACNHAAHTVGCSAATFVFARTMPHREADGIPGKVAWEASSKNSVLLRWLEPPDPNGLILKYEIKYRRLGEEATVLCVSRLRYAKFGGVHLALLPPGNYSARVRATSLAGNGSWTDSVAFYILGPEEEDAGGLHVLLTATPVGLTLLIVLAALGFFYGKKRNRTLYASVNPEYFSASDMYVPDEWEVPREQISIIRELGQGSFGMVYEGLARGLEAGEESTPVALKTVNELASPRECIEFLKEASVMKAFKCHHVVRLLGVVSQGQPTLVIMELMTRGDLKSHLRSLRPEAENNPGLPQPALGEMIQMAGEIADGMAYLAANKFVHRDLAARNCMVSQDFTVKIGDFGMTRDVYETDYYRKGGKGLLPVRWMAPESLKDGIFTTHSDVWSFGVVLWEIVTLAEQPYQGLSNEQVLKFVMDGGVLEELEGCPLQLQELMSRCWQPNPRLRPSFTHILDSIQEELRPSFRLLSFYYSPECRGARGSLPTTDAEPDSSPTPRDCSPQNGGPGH
# protocol_notes: Kinase Profiling Assay
# Format: biochemical
# assay_setup: peptide 100 μM
No end group written: not given here.
endpoint: % activity (%)
Numeric answer only, unit % assumed.

The recorded % activity with IRR(h) (Homo sapiens, UniProt P14616) for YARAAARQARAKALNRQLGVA (Mammal) [MMI-0200] was 69

Tested on IRR(h) (Homo sapiens, UniProt P14616), the item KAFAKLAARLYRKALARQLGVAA [MMI-0400] showed % activity equal to 8

// assay IRR(h) (Homo sapiens, UniProt P14616), entry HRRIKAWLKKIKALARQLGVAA (Mammal) [MMI-0500] , % activity value = 10

Record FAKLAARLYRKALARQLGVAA [MMI-0300] has IRR(h) (Homo sapiens, UniProt P14616) % activity equal to 8

Summary: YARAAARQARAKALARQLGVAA [MMI-0100] , IRR(h) (Homo sapiens, UniProt P14616), % activity = 85

---

# test_system: PDGFRα(h) (Homo sapiens, UniProt P16234)
# Sequence (P16234 24-1089): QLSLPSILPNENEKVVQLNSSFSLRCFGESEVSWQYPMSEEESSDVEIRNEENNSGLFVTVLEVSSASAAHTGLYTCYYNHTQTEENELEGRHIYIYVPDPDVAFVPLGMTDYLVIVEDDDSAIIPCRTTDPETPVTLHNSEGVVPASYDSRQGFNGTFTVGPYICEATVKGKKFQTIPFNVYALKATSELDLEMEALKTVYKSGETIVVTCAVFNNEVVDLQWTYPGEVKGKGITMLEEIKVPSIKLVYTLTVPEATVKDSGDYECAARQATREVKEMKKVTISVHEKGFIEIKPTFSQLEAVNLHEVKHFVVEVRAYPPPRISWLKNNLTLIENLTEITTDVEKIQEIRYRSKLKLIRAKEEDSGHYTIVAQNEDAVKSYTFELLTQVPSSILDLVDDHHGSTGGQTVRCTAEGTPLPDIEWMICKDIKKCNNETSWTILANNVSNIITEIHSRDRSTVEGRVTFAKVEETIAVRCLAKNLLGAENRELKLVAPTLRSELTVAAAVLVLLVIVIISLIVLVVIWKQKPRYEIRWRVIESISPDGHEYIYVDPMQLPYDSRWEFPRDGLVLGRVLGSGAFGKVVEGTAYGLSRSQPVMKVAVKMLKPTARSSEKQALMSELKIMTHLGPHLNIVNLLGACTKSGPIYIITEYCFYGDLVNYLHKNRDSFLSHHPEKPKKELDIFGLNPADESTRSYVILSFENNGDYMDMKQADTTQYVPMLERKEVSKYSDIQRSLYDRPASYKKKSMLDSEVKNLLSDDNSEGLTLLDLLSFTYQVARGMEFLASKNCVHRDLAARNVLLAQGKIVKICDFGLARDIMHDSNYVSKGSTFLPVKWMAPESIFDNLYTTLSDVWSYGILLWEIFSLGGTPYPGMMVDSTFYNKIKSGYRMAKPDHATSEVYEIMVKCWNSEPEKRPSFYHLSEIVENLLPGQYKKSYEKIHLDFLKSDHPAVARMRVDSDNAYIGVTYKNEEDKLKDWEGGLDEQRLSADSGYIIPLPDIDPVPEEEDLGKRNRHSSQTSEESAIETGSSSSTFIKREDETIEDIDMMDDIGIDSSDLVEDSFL
# protocol_notes: Kinase Profiling Assay
# Type: biochemical
# assay_setup: peptide 100 μM
Kindly state % activity for each of the entries shown.
Respond with the bare value in %.

Documented % activity of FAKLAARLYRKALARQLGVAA [MMI-0300] : 65

# sequence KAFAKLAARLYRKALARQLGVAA [MMI-0400] ; its % activity = 40

Looking up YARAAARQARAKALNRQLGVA (Mammal) [MMI-0200] , I see its % activity listed as 108

Data point: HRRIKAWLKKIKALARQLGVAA (Mammal) [MMI-0500] ; % activity = 40

---

# test_system: PKCγ(h) (Homo sapiens, UniProt P05129)
# protocol_notes: Kinase Profiling Assay
# Type: biochemical
# assay_setup: peptide 100 μM
# Description: Every kinase activity measurement was conducted in duplicate. Specifically, in these assays, a positively charged substrate is phosphorylated with a radiolabeled phosphate group from an ATP if the kinase is not inhibited by an inhibitor peptide. The positively charged substrate then is attracted to a negatively charged filter membrane, quantified with a scintillation counter, and compared to a 100% activity control. […]
endpoint: % activity
Please make sure the unit comes right after the number.

So, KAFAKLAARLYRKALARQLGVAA [MMI-0400] ? Its % activity was 79%

// % activity lookup, sequence = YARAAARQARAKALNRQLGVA (Mammal) [MMI-0200] , result: 101%

The sequence listed as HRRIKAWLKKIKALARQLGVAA (Mammal) [MMI-0500] has a reported % activity of 6%

Entry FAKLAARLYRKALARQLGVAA [MMI-0300] , % activity reported as 89%

---

Provide the reported % activity of each item.
# test_system: EGFR(h) (Homo sapiens)
# protocol_notes: Kinase Profiling Assay
# Assay type: biochemical
# assay_setup: peptide 100 μM
Numeric answer only, unit % assumed.

Reported % activity ( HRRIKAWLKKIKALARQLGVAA (Mammal) [MMI-0500] ) = -1

Entry under test: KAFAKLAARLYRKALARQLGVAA [MMI-0400] . Its % activity was 16

// % activity value for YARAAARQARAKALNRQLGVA (Mammal) [MMI-0200] : 83

Data point: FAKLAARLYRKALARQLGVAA [MMI-0300] ; % activity = 21

---

# test_system: Hck(h) activated (Homo sapiens)
# Construct: purchased Millipore
# Sequence (P08631 whole entry): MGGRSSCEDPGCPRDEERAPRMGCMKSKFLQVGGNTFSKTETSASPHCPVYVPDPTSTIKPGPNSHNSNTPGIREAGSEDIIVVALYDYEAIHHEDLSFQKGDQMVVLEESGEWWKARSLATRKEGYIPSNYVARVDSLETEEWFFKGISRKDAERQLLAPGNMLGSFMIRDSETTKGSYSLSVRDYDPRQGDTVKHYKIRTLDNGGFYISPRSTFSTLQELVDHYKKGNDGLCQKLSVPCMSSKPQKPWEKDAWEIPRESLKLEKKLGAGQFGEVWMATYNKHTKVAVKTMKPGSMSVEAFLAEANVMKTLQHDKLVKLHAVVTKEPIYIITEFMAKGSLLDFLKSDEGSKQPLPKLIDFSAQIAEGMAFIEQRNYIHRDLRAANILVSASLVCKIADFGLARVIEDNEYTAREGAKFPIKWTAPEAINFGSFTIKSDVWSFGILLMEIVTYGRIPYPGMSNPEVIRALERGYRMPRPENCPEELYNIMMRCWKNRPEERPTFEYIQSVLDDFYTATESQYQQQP
# protocol_notes: Kinase Profiling Assay
# Format: biochemical
# assay_setup: peptide 100 μM
Provide the recorded % activity for the entries that follow.
Hi, when you answer, please include the unit after the number. Thanks!

Per the records, this sequence ( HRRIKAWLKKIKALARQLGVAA (Mammal) [MMI-0500] ) has % activity equal to 67%

Sample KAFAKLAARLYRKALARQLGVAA [MMI-0400] ; % activity observed: 81%

The sequence listed as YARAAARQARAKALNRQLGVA (Mammal) [MMI-0200] has a reported % activity of 100%

Just so you know, measured % activity for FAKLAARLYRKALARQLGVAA [MMI-0300] came out at 82%

---

Task for the reader: assign each of the following sequences its reported % activity.
# test_system: FGFR1(h) (Homo sapiens, UniProt P11362)
# Sequence (P11362 22-822): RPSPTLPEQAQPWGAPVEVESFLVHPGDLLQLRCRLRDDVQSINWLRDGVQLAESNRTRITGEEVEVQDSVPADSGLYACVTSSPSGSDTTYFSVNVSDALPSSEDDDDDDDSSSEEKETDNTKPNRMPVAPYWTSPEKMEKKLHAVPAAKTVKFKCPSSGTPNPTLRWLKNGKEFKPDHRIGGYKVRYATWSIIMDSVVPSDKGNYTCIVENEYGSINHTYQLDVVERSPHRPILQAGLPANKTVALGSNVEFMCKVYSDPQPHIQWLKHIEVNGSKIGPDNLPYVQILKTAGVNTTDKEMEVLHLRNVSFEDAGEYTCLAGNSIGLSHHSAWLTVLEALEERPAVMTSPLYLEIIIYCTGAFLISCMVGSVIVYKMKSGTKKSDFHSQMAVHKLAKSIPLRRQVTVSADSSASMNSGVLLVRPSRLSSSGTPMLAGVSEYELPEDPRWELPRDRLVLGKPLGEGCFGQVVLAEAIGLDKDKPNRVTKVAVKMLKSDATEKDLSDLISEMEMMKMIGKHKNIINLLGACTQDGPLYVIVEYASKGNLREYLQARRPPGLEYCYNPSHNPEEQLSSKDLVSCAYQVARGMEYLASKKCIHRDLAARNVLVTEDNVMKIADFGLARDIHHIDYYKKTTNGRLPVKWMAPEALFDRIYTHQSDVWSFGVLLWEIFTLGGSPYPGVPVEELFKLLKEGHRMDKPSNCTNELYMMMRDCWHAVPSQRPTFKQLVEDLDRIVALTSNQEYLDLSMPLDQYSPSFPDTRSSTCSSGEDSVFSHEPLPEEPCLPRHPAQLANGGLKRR
# protocol_notes: Kinase Profiling Assay
# Type: biochemical
# assay_setup: peptide 100 μM
No end group written: not given here.
// units = %; emit number, no label

Notebook: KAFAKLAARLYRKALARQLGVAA [MMI-0400] , % activity read as 59

Data point: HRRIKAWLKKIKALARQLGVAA (Mammal) [MMI-0500] ; % activity = 18

// sample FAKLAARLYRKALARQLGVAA [MMI-0300] , its % activity was 55

Documented % activity of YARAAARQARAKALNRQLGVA (Mammal) [MMI-0200] : 97

Entry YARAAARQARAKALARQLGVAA [MMI-0100] ; % activity = 120

---

# test_system: SGK3(h) (Homo sapiens)
# Construct: purchased Millipore
# Sequence (Q96BR1 1-496): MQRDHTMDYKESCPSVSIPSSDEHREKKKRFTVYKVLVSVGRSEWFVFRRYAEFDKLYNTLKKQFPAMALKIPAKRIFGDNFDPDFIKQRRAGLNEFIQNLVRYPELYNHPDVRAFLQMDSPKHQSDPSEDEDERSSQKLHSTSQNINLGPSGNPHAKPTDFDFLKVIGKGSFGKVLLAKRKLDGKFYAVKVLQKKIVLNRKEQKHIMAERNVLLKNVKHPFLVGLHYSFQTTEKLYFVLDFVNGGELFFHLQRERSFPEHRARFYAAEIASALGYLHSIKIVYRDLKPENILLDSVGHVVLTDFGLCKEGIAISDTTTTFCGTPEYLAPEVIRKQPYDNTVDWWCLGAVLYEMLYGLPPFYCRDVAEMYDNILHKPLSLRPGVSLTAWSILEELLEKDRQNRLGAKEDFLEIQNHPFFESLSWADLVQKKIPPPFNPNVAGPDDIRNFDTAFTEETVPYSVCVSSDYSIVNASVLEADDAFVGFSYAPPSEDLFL
# protocol_notes: Kinase Profiling Assay
# Type: biochemical
# assay_setup: peptide 100 μM
# Experimental: Every kinase activity measurement was conducted in duplicate. Specifically, in these assays, a positively charged substrate is phosphorylated with a radiolabeled phosphate group from an ATP if the kinase is not inhibited by an inhibitor peptide. The positively charged substrate then is attracted to a negatively charged filter membrane, quantified with a scintillation counter, and compared to a 100% activity control. […]
No end group written: not given here.
endpoint: % activity

% activity in this record for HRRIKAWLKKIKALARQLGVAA (Mammal) [MMI-0500] : -3%

So, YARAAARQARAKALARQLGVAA [MMI-0100] ? Its % activity was 95%

For this sequence ( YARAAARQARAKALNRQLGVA (Mammal) [MMI-0200] ), measured % activity is 58%

# % activity (sequence: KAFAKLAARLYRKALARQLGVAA [MMI-0400] ) is 8%

The reported % activity of the sequence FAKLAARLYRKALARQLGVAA [MMI-0300] was 10%

---

# test_system: PKBβ(h) (Homo sapiens)
# protocol_notes: Kinase Profiling Assay
# Assay type: biochemical
# assay_setup: peptide 100 μM
endpoint: % activity (%)
Number in %, nothing else.

Measured % activity, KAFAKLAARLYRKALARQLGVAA [MMI-0400] : 98

// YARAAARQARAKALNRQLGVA (Mammal) [MMI-0200] : % activity value = 250

The value of % activity measured for the sequence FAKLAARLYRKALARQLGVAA [MMI-0300] turned out to be 84

% activity reading for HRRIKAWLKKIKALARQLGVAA (Mammal) [MMI-0500] : 21
